- system_tested: RUP3 (Mesocricetus auratus)
- Sequence (A0A1U8CD06 1-334): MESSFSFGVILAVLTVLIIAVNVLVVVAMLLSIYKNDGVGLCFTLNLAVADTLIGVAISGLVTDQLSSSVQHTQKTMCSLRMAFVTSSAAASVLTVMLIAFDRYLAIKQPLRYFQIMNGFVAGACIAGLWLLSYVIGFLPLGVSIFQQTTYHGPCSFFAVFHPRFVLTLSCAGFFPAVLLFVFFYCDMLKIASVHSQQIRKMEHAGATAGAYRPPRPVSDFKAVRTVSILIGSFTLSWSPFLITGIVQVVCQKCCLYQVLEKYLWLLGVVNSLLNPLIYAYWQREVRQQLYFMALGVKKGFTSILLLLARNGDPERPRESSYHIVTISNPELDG
- measurement_notes: Stimulation of cAMP in HIT-T15 cells (cAMP Flashplate Assay)
- condition_set: Table 6
pEC50: −log10 of the molar value.
reported_metric: pEC50

INSERT INTO results (entry_smiles, recorded_measurement) VALUES
  ('CC(C)(C)OC(=O)N1CCC(Oc2ncnc(Nc3ccc(S(C)(=O)=O)cc3F)c2[N+](=O)[O-])CC1', 7.57);

1 = CC(C)(C)OC(=O)N1CCC(Oc2ncnc(Nc3ccc(S(C)(=O)=O)cc3)c2[N+](=O)[O-])CC1
2 = CC(C)(C)OC(=O)N1CCC(Oc2ncnc(Nc3ccc(S(C)(=O)=O)cc3)c2C#N)CC1
Input line: Of the pair 1 and 2 , name the member with the lesser recorded pEC50. Let me know the label of the one you choose.
Output line: 2

* * *

- system_tested: RUP3 (Homo sapiens, UniProt Q8TDV5)
- Sequence (Q8TDV5 1-335): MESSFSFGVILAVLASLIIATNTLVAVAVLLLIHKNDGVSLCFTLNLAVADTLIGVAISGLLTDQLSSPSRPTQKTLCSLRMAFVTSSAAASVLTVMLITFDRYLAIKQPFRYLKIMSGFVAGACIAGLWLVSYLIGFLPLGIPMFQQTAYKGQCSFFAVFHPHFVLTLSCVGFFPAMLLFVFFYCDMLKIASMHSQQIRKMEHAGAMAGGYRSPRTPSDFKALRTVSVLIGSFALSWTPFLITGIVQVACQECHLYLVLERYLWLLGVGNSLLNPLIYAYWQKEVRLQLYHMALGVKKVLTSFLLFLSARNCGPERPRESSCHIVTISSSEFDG
- measurement_notes: RUP3 dose responses in melanophores
- condition_set: melanophores transfected with RUP3 expression vector; Table 8
- Description: Melanophores are maintained in culture as reported by Potenza, M. N. and Lerner, M. R., in Pigment Cell Research, Vol. 5, 372-378, 1992 and transfected with the RUP3 expression vector (pCMV) using electroporation. […] On the assay day, the growth medium on the cells is replaced with serum-free buffer containing 10 nM melatonin. […] The net effect of this is a significant decrease in the absorbance reading of the cell monolayer in the well, measured at […]. […]
reported_metric: EC50 (nM)

Recorded results for 3 compounds are shown here.
INSERT INTO measurements (compound, recorded_measurement) VALUES
  ('CS(=O)(=O)c1ccc(Nc2ncnc(OC3CCN(C(=O)c4cccnc4)CC3)c2[N+](=O)[O-])cc1 [Compound A24]', 185),
  ('Cc1nc(Cl)ccc1Nc1ncnc(OC2CCN(C(=O)OC(C)C)CC2)c1C [Compound A90]', 52),
  ('CC(C)OC(=O)N1CCC(Oc2ncnc(Nc3ccc(S(C)(=O)=O)cc3)c2C#N)CC1 [Compound A39]', 16.9);

I = Cc1nc(C)c(S(=O)(=O)N2CCC(Oc3ncnc(Nc4ccc(S(C)(=O)=O)cc4)c3[N+](=O)[O-])CC2)s1 [Compound A32]
II = CS(=O)(=O)c1ccc(Nc2ncnc(OC3CCN(S(C)(=O)=O)CC3)c2[N+](=O)[O-])cc1 [Compound A27]
Input line: # return whichever of I and II has the smaller EC50 Write down the label attached to your selection.
Output line: I

I = CC(C)(C)C(=O)CN1CCC(Oc2ncnc(Nc3ccc(S(C)(=O)=O)cc3)c2[N+](=O)[O-])CC1 [Compound A11]
II = Cc1c(Oc2ccc(CCn3ccnc3)cc2F)ncnc1OC1CCN(C(=O)OC(C)C)CC1 [Compound C168]
Input line: Could you determine which record has the numerically smaller EC50? Candidates: I and II API: response body contains the label of the selected item.
Output line: II

All figures here come from patent US8546429B2.
